target: full-length human RORγt (Homo sapiens); construct: expressed in transfected cells; host or cells: HEK293T, transiently transfected with pCMV-BD-ROR; experiment: RORγt (full-length human) Reporter Assay, Conditions A; format: cell-based; settings: HEK293T cells, GAL4-DBD-RORγt, luciferase; read-out: RORγt (FL) Reporter Assay A, IC50
Sequence (P51449 1-497 isoform P51449-2): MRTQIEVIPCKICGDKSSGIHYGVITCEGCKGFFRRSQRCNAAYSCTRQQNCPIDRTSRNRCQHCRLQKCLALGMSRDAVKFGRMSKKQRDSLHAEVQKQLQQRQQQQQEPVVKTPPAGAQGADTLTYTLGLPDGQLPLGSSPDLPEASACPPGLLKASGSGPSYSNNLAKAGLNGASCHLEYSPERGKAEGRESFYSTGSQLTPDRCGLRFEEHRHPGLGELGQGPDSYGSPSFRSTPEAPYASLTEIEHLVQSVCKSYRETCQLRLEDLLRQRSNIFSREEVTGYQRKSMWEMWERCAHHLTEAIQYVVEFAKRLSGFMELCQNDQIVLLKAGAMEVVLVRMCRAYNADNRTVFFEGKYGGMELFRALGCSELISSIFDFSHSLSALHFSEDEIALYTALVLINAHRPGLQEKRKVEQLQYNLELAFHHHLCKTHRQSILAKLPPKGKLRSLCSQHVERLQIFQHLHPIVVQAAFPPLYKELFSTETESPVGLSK
Experimental Endpoint: pIC50
Note on units: pIC50 is unitless, being -log10 of a concentration expressed in mol/L.

CC[C@H](NS(=O)(=O)c1ccc(-c2sc(-c3noc(CC(C)(C)O)n3)nc2C(=O)N2CCC(F)CC2)c(C(F)F)c1F)C(F)(F)F [Example 12] : 7.17
C[C@H](NS(=O)(=O)c1ccc(-c2sc(-c3nnc(C(C)(C)O)o3)nc2C(=O)N2CCCC[C@@H]2C)c(C(F)F)c1F)C(F)(F)F [Example 6/18] : 7.09
C[C@H]1CCCN1C(=O)c1nc(-c2nnc(C(C)(C)O)n2C)sc1-c1ccc(C(O)(C(F)(F)F)C(F)(F)F)cc1C(F)(F)F [Example 22] : 6.96

QUERY: I am curious: what pIC50 value has been reported for CCN(CC)C(=O)c1nc(-c2nnc(C(C)(C)O)[nH]2)sc1-c1ccc(C(O)(C(F)(F)F)C(F)(F)F)c(Cl)c1Cl [Example 9] ?
RESULT: 6.92

Reference source: patent US9845319B2
